species on record: Cavia porcellus; test: Intrinsic activity at muscarinic M2 receptor in guinea pig left atrium after 45 mins relative to bethanechol; format: tissue-based; details: Cardiac atrium
Property Name: Intrinsic activity

- Molecule: "CC[C@@H]1COC[C@@H](C[N+](C)(C)C)O1.[I-] (relative stereo)"
  Property Name: "Intrinsic activity"
  Experimental Result: 0.7
- Molecule: "C[N+](C)(C)C[C@@H]1COCC(c2ccccc2)(c2ccccc2)O1.[I-]"
  Property Name: "Intrinsic activity"
  Experimental Result: 0
- Molecule: "C[N+](C)(C)C[C@@H]1COC[C@H](c2ccccc2)O1.[I-] (relative stereo)"
  Property Name: "Intrinsic activity"
  Experimental Result: 0
- Molecule: "CN(C)C[C@@H]1COCC(c2ccccc2)(c2ccccc2)O1.O=C(O)C(=O)O"
  Property Name: "Intrinsic activity"
  Experimental Result: 0
- Molecule: "C[N+](C)(C)C[C@@H]1COC[C@@H](c2ccccc2)O1.[I-] (relative stereo)"
  Property Name: "Intrinsic activity"
  Experimental Result: 0
- Molecule: "C[N+](C)(C)C[C@H]1COCC(c2ccccc2)(c2ccccc2)O1.[I-]"
  Property Name: "Intrinsic activity"
  Experimental Result: 0
- Molecule: "CN(C)C[C@H]1COCC(c2ccccc2)(c2ccccc2)O1.O=C(O)C(=O)O"
  Property Name: "Intrinsic activity"
  Experimental Result: 0
- Molecule: "CC[C@H]1COC[C@@H](C[N+](C)(C)C)O1.[I-] (relative stereo)"
  Property Name: "Intrinsic activity"
  Experimental Result: 1
- Molecule: "C[C@H]1COC[C@@H](C[N+](C)(C)C)O1.[I-]"
  Property Name: "Intrinsic activity"
  Experimental Result: 1
- Molecule: "CN(C)CC1COCC(c2ccccc2)(c2ccccc2)O1.O=C(O)C(=O)O (racemic)"
  Property Name: "Intrinsic activity"
  Experimental Result: 0

Ask | Dear colleague, please send me the reported Intrinsic activity for CCN(CC)CC#CCOC(=O)C(O)(c1ccccc1)C1CCCCC1 (configuration not stated) when you can.
Reply | 0

Ask | Give recorded Intrinsic activity. C[N+](C)(C)CC1COCC(c2ccccc2)(c2ccccc2)O1.[I-] (racemic)
Reply | 0

* * *

Quick reference: log10(Ki) of the listed items.
Target: Muscarinic acetylcholine receptor M5 (Homo sapiens, UniProt P08912)
Sequence (P08912 whole entry): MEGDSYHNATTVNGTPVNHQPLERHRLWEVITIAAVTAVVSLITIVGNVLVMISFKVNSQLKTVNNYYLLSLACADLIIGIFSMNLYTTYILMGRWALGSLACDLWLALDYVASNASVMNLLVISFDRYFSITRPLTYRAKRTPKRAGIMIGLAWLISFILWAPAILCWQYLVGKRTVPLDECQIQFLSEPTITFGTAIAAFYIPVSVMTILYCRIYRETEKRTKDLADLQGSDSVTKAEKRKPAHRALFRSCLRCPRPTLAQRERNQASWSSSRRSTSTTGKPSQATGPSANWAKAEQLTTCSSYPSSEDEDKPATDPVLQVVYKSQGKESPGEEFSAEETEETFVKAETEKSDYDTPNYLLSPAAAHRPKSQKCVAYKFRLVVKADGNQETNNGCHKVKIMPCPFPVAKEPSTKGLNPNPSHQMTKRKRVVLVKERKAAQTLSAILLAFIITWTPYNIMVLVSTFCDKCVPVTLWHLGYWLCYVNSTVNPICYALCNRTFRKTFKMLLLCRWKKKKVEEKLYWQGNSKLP
Experiment: Displacement of [3H]N-methylscopolamine from human muscarinic M5 receptor expressed in CHO cells after 120 mins by scintillation counting
Assay type: cell-based
# values: log10(Ki), units nM

Example results:
- Molecule: "CN(C)CC1COCC(c2ccccc2)(c2ccccc2)O1.O=C(O)C(=O)O (racemic)"
  Experimental Result: 0.73
- Molecule: "C[N+](C)(C)C[C@@H]1COCC(c2ccccc2)(c2ccccc2)O1.[I-]"
  Experimental Result: 2.03
- Molecule: "CN(C)C[C@@H]1COCC(c2ccccc2)(c2ccccc2)O1.O=C(O)C(=O)O"
  Experimental Result: 1.91
- Molecule: "CC[C@H]1COC[C@@H](C[N+](C)(C)C)O1.[I-] (relative stereo)"
  Experimental Result: 4.42

Ask | Tell me log10(Ki) reported for "C[N+](C)(C)C[C@H]1COCC(c2ccccc2)(c2ccccc2)O1.[I-]"
Reply | 0.23

Ask | Tell me log10(Ki) reported for C[N+](C)(C)CC1COCC(c2ccccc2)(c2ccccc2)O1.[I-] (racemic)
Reply | 0.64

Ask | Specify log10(Ki) for "CN(C)C[C@H]1COCC(c2ccccc2)(c2ccccc2)O1.O=C(O)C(=O)O" and stop.
Reply | 0.26

Origin of values: ChEMBL document CHEMBL2040723
